Experiment: Octanol/water partition coefficient by RP-HPLC
Type: physicochemical
Conditions: 1-octanol/sodium phosphate buffer; 1-octanol / 10 mM sodium phosphate buffer pH 7.4 with 150 mM NaCl, corrected for ionization
Method: P is the ratio of the concentration of an un-ionized form of a compound in octanol relative to the unionized concentration of the compound in an aqueous phase containing 150 mM NaCl (to approximate physiological conditions), after the two phases have equilibrated. Log P values were determined for each test compound by RP-HPLC analysis. […]
Counter-ions that a name gives are not always drawn.
Give logP for every item shown.
Keep the answer to the number alone.

Q: Any idea what logP was measured for COc1ccc2cc(/C=C3\CCCN=C3c3cccnc3)ccc2c1 [dihydrochloride] ?
A: 2.65

Q: Consider the compound shown here: C(=C1/CCCN=C1c1cccnc1)/c1cc2ccccc2o1 What is its recorded logP?
A: 3.86

Q: What logP value was documented for this compound, C(=C1/CCCN=C1c1cccnc1)/c1ccc2c(c1)OCCO2 ?
A: 3.1

Q: Which value of logP has been reported for C(=C1/CCCN=C1c1cccnc1)/c1ccc2c(c1)OCO2 in the records?
A: 2.43

----------
target: α4β2 nAChR (Rattus norvegicus, UniProt P09483+P12390); test: Radioligand binding, displacement of [3H]cytisine from rat brain membranes; details: n = 2
Sequence (P09483 31-630): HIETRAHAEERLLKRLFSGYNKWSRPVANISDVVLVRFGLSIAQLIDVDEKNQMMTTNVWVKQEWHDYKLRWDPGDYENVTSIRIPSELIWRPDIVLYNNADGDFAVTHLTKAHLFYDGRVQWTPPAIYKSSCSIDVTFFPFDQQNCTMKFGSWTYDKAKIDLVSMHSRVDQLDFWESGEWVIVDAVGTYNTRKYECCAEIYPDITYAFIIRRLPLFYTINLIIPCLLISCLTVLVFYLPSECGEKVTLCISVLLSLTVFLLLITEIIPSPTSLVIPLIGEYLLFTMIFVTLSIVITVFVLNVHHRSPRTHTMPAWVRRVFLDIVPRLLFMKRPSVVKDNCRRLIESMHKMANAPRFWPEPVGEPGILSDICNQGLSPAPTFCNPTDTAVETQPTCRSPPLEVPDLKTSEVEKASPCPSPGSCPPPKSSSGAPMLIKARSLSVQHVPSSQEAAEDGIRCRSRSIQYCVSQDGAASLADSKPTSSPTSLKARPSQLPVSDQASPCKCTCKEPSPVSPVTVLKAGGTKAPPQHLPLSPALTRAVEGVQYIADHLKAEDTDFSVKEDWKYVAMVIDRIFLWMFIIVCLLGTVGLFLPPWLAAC
Sequence (P12390 25-500): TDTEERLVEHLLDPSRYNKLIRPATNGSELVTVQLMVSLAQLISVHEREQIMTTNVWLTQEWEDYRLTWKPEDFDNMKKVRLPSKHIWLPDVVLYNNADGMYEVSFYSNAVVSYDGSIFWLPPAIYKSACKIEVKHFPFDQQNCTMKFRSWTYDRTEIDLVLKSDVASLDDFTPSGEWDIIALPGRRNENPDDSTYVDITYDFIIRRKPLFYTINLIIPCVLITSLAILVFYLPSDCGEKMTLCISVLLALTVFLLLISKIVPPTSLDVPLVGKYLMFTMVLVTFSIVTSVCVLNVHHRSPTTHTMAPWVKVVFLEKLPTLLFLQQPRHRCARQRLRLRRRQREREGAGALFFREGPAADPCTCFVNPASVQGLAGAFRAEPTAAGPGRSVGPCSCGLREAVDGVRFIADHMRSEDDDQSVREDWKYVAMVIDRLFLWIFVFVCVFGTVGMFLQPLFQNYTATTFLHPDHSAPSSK
Where a name gives a salt, the structure may show the parent alone.
Provide the recorded Ki for the entries that follow.
Returns: string containing the numeric result and its unit.

Q: // query Ki value for entry COc1ccc2cc(/C=C3\CCCN=C3c3cccnc3)ccc2c1 [dihydrochloride]
A: 0.6 µM

Q: Report Ki for C(=C1/CCCN=C1c1cccnc1)/c1ccc2c(c1)OCO2 please.
A: 0.7 µM

Q: What value of Ki has been reported for the following compound? C(=C1/CCCN=C1c1cccnc1)/c1cc2ccccc2o1
A: 5.92 µM

Q: Field request: Ki | item: C(=C1/CCCN=C1c1cccnc1)/c1ccc2c(c1)OCCO2
A: 0.52 µM

----------
Hi there, I'd appreciate the recorded pKa for every entry that follows.
assay: Spectrophotometric pKa determination of the imine nitrogen; type: physicochemical; details: imine nitrogen, room temperature, 50 mM potassium phosphate buffer, 150 mM NaCl
Where a name gives a salt, the structure may show the parent alone.
Write the value as a bare number.

Q: Requested field: pKa. Item: C(=C1/CCCN=C1c1cccnc1)/c1ccc2c(c1)OCCO2
A: 7.56

Q: Would you kindly share the measured pKa for COc1ccc2cc(/C=C3\CCCN=C3c3cccnc3)ccc2c1 [dihydrochloride] ?
A: 7.29

Q: Which value of pKa has been reported for C(=C1/CCCN=C1c1cccnc1)/c1ccc2c(c1)OCO2 in the records?
A: 7.64

----------
molecular target: α7 nAChR (Rattus norvegicus, UniProt Q05941); assay type: binding; settings: alpha7 selectivity, not normalized with respect to DMXBA selectivity
Sequence (Q05941 23-502): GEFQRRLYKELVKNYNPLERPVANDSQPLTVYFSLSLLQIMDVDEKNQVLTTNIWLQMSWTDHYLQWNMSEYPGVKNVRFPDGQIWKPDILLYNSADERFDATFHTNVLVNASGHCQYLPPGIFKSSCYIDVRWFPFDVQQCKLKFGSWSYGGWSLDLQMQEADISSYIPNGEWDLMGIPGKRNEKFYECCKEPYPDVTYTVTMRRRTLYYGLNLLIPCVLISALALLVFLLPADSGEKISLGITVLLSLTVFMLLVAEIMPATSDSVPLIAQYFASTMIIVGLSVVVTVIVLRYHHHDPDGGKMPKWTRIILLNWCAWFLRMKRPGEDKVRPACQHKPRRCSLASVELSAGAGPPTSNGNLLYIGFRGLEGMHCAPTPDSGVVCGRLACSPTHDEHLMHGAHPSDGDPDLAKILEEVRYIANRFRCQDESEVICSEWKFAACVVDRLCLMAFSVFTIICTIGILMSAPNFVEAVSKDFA
Where a name gives a salt, the structure may show the parent alone.
parameter.measured: Ki α4β2/α7 Ratio
Output spec: single numeric token, no unit.

Q: Which Ki α4β2/α7 Ratio value belongs to C(=C1/CCCN=C1c1cccnc1)/c1cc2ccccc2o1 ?
A: 39.5

Q: Ki α4β2/α7 Ratio for COc1ccc2cc(/C=C3\CCCN=C3c3cccnc3)ccc2c1 [dihydrochloride] ?
A: 1.62

Q: Which measured Ki α4β2/α7 Ratio value corresponds to C(=C1/CCCN=C1c1cccnc1)/c1ccc2c(c1)OCO2 ?
A: 3.04

Q: Given the molecule C(=C1/CCCN=C1c1cccnc1)/c1ccc2c(c1)OCCO2 , what is its reported Ki α4β2/α7 Ratio?
A: 2.60
